Data provenance is patent US8772499B2.

- method-notes: In vitro rat microsomal stability assay
- Type: in vitro ADME, rat (Sprague-Dawley)
- condition-context: Sprague-Dawley, rat, microsomes, 0.5 h, 0.5 μM, pH 7.4
- Experimental: Test compounds were evaluated for metabolic stability in an in vitro rat microsomal stability assay using rat liver microsomes (Sprague-Dawley, from BD Biosciences) and/or an in vitro human microsomal stability assay using human liver microsomes (Xenotech). […] Incubations were carried out at 37° C. with a final incubation volume of 135 μL. […] A 1.5 μL aliquot of reduced nicotine adenine disphosphonucleotide (NADPH) (Chem-Impex Int'L Inc., Lot 12532024) was also added to the time-zero plates.
Assign class by RAT MICROSOMAL STABILITY (% REMAINING AFTER 30 MINUTES): not lower than 5% means true; lower than 5% means false.

Some entries whose results are on file:
1. COC1CC(c2ccc(Cl)c(Cl)c2)([C@H](O)c2ccccn2)C1 (mixture of isomers)	false
2. OC(c1ccccn1)C1(c2nc3ccc(F)cc3s2)CCC1 (stereo not drawn)	false
3. OC(c1ccccn1)C1(C2CCOC2)CCC1 (stereo not drawn)	true
4. OC(C1CCc2cccnc21)C1(c2ccc(C(F)(F)F)cc2)CCC1 (stereo not drawn) [Example 174]	false
5. OC(C1CCCc2cccnc21)C1(c2ccc(Cl)c(Cl)c2)CCC1 (single isomer, unassigned) [Example 181]	false
6. Cc1ccccc1C1(C(O)c2ccccn2)CCC1 (stereo not drawn)	false
7. Nc1cccnc1C(O)C1(c2cccc(C(F)(F)F)c2)CCC1 (stereo not drawn)	false
8. OC(c1ccccn1)C1(c2ccc(C(F)(F)F)cc2)CCCO1 (single isomer, unassigned) [Example 89]	false
9. O=C1CC(c2ccc(F)c(Cl)c2)([C@H](O)c2ccccn2)C1 (single isomer, unassigned)	true
10. OC(CC1(c2ccc(OC(F)(F)F)cc2)CCC1)c1ccccn1 (stereo not drawn)	false

Prompt: Please indicate if the recorded RAT MICROSOMAL STABILITY (% REMAINING AFTER 30 MINUTES) for CON=C1CC(c2ccc(OC(F)(F)F)cc2)([C@H](O)c2ccccn2)C1 (stereo partly drawn) meets or exceeds 5%.
Response: false

Prompt: Please indicate if the recorded RAT MICROSOMAL STABILITY (% REMAINING AFTER 30 MINUTES) for OC(c1ccccn1)C1(c2ccccc2F)CCC1 (stereo not drawn) meets or exceeds 5%.
Response: false

Prompt: Please indicate if the recorded RAT MICROSOMAL STABILITY (% REMAINING AFTER 30 MINUTES) for CC1(O)CC(c2ccc(OC(F)(F)F)cc2)(C(O)c2ncccn2)C1 (stereo not drawn) [Example 311] meets or exceeds 5%.
Response: true

Prompt: Please indicate if the recorded RAT MICROSOMAL STABILITY (% REMAINING AFTER 30 MINUTES) for OC1CC(c2cncc(C(F)(F)F)c2)(C(O)c2ccccn2)C1 (stereo not drawn) [Example 304] meets or exceeds 5%.
Response: true

Prompt: Please indicate if the recorded RAT MICROSOMAL STABILITY (% REMAINING AFTER 30 MINUTES) for `O=C1CC(c2cc(C(F)(F)F)ccn2)([C@@H](O)c2ccccn2)C1` meets or exceeds 5%.
Response: true

Prompt: Please indicate if the recorded RAT MICROSOMAL STABILITY (% REMAINING AFTER 30 MINUTES) for OC(c1ccccn1)C1(c2nc3ccc(Cl)cc3s2)CCC1 (stereo not drawn) meets or exceeds 5%.
Response: true

Prompt: Please indicate if the recorded RAT MICROSOMAL STABILITY (% REMAINING AFTER 30 MINUTES) for OC(c1ccccn1)C1(c2ccc(C(F)(F)F)cc2)CC2(C1)OCCO2 (stereo not drawn) meets or exceeds 5%.
Response: false

Prompt: Please indicate if the recorded RAT MICROSOMAL STABILITY (% REMAINING AFTER 30 MINUTES) for OC(c1ncccn1)C1(c2cccc(OC(F)(F)F)c2)CCC1 (stereo not drawn) meets or exceeds 5%.
Response: true
